# assay-comment: refractive index (Na D-line) (dimensionless)
# protocol-conditions: 318.15 K; 101.33 kPa; Liquid; Standard Abbe refractometry
endpoint-label: refractive index
Answers are plain numbers.

Look over these answered cases.
CC(O)CCO (stereo not given) : 1.4308
CCCCO : 1.3893
OCCCCO : 1.4352
NC=O [formamide] : 1.4433

Here is the next item to consider.
Name the recorded refractive index for CCC(C)O (stereo not given) .
1.3871

====

For each record, write down the corresponding refractive index.
# assay-comment: refractive index (Na D-line) (dimensionless)
# protocol-conditions: 293.15 K; 101.33 kPa; Liquid; Standard Abbe refractometry
One number for each entry.

// below: answered molecules
CCCCO [butan-1-ol] : 1.3994
CCC(C)O (stereo not given) [butan-2-ol] : 1.3972
OCCCCO [1,4-butanediol] : 1.4451

Would you be so kind as to report refractive index for each listed record?
1. CC(O)CCO (stereo not given) [1,3-butanediol]
2. NC=O [formamide]

1. 1.4412
2. 1.4475

// data source = the NIST ThermoML archive (doi:10.1021/je7007632)
